From: the RNAGym collection of RNA variant scans (doi:10.7554/elife.90254)

B1: LINE1-full (parent)
chain: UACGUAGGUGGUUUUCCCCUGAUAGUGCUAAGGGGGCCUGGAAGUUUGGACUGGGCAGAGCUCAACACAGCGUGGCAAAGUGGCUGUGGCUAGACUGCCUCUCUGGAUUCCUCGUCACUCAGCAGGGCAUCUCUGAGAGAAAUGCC

Variants of: B1
runDescription: self-cleavage, relative activity (ratio to wild type); higher = more cleavage; in vitro, sequencing; the parent is a self-cleaving ribozyme
Is self-cleavage at least 0.6? Then True. If not, False.

- mutantId: "U5C C66U"
  groupLabel: "False"
- mutantId: "U12C U81C"
  groupLabel: "True"
- mutantId: "U91C A136U"
  groupLabel: "False"
- mutantId: "A65U A138G"
  groupLabel: "False"
- mutantId: "U46C U112A"
  groupLabel: "True"
- mutantId: "U85C G137A"
  groupLabel: "False"
- mutantId: "A30U C56A"
  groupLabel: "False"
- mutantId: "U102C A141G"
  groupLabel: "True"
- mutantId: "U15C C99U"
  groupLabel: "False"
- mutantId: "G82A U96A"
  groupLabel: "False"
- mutantId: "A24C C51U"
  groupLabel: "True"
- mutantId: "A94U A141G"
  groupLabel: "False"
- mutantId: "U14C"
  groupLabel: "True"
- mutantId: "A64G U112C"
  groupLabel: "False"
- mutantId: "G36A A124C"
  groupLabel: "True"
- mutantId: "A117C A124U"
  groupLabel: "True"
- mutantId: "U5C A136G"
  groupLabel: "True"
- mutantId: "A2C C56U"
  groupLabel: "False"
- mutantId: "U12C C18U"
  groupLabel: "True"
- mutantId: "A2G A140G"
  groupLabel: "True"
- mutantId: "A43U U112C"
  groupLabel: "True"
- mutantId: "U73A C110A"
  groupLabel: "True"
